- SYSTEM NAME: Neuronal acetylcholine receptor subunit alpha-4 (Homo sapiens, UniProt P43681); also: assay procedure not described here
- Sequence (P43681 whole entry): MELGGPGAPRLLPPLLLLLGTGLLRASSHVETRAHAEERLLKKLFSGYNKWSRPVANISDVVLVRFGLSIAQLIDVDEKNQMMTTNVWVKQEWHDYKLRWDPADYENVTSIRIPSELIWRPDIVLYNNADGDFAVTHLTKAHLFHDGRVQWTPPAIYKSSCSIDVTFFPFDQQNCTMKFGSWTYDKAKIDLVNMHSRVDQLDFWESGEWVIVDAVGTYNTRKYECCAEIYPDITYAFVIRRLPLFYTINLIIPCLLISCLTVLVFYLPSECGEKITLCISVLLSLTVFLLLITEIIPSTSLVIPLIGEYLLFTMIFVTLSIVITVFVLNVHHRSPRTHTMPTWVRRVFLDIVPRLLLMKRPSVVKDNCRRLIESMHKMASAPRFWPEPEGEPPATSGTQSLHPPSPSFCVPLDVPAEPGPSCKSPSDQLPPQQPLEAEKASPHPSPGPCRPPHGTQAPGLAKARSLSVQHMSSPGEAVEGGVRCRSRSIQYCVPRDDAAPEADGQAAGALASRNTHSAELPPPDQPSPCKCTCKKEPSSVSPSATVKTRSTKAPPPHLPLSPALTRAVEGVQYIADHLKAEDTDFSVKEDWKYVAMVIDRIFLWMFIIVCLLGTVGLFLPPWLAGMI
Where a SMILES comes first, the peptide text is derived from it.
Each record here notes measured AC50.

Answered cases to consult:
COMPOUND: C[C@H](N)C(=O)N[C@@H](CCC(N)=O)C(=O)O [ALANYL GLUTAMINE] (H-Ala-Gln-OH)
MEASURED VALUE: > 30 µM
//
COMPOUND: CCN(CC)CCCN(c1ccccc1)C1Cc2ccccc2C1 [APRINDINE]
MEASURED VALUE: > 30 µM
//
COMPOUND: COc1ccc(-n2nc(C(N)=O)c3c2C(=O)N(c2ccc(N4CCCCC4=O)cc2)CC3)cc1 [APIXABAN]
MEASURED VALUE: > 30 µM

Using known records, supply AC50 for CCC1(c2ccccc2)C(=O)NCNC1=O [PRIMIDONE] > 10 µM

Provide only the value of recorded AC50 for CN(Cc1ccc(C(C)(C)C)cc1)Cc1cccc2ccccc12 [BUTENAFINE] > 10 µM

Please look at this compound and report its AC50: CCCCOC(=O)c1ccc(N)cc1 [BUTAMBEN] > 30 µM

# return recorded AC50 for input C[C@H](CS)C(=O)N1CCC[C@H]1C(=O)O [CAPTOPRIL] > 10 µM

Return value of AC50 for input CC(=O)Oc1ccccc1C(=O)O [ASPIRIN] , no commentary. > 10 µM

* * *

- SYSTEM NAME: UniProt:P22303
- Sequence (P22303 whole entry): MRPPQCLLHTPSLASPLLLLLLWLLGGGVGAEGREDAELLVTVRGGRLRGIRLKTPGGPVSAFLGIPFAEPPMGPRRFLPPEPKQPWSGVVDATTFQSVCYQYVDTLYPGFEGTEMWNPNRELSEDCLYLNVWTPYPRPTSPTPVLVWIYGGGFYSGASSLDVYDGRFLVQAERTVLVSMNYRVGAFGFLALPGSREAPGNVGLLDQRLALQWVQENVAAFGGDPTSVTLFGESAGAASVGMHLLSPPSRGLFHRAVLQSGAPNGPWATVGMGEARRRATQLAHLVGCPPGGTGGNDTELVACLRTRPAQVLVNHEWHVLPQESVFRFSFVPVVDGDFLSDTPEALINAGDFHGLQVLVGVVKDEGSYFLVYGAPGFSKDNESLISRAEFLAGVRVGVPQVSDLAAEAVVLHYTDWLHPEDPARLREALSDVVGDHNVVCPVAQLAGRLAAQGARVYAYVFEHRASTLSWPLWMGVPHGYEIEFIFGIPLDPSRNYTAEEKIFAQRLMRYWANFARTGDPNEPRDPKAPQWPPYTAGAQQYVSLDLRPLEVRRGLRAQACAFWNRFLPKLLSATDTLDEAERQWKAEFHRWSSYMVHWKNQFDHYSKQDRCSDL
- Assay type: functional
READOUT NAME: AC50

Use these answered entries as a reference point.
COMPOUND: C[C@@H](O)[C@H]1C(=O)N2C(C(=O)O)=C(SCCN=CN)C[C@H]12 [IMIPENEM ANHYDROUS]
AC50: > 300 µM

COMPOUND: CN1CC2c3ccccc3Oc3ccc(Cl)cc3C2C1 (configuration not stated) [ASENAPINE]
AC50: > 30 µM

COMPOUND: c1cnc2cc3c(cc2n1)[C@@H]1CNC[C@H]3C1 [VARENICLINE]
AC50: > 30 µM

COMPOUND: NC(=O)OC[C@@H]1[C@H](NC(=O)/C(=N\OCC(=O)O)c2csc(N)n2)C(=O)N1S(=O)(=O)O [CARUMONAM]
AC50: > 500 µM

COMPOUND: C[C@H](Nc1ncnc2[nH]cnc12)c1cc2cccc(Cl)c2c(=O)n1-c1ccccc1 [DUVELISIB]
AC50: > 30 µM

Please supply the value of reported AC50 for the item CCN(c1cc(-c2ccc(CN3CCOCC3)cc2)cc(C(=O)NCc2c(C)cc(C)[nH]c2=O)c1C)C1CCOCC1 [TAZEMETOSTAT] > 30 µM

Indicate its recorded AC50; the compound in question is O=C1[C@@H]2[C@H]3CC[C@H](C3)[C@@H]2C(=O)N1C[C@@H]1CCCC[C@H]1CN1CCN(c2nsc3ccccc23)CC1 [LURASIDONE] 1.3 µM

Give the reported value of AC50 for this record: CO[C@@H]1[C@@H](OC(N)=O)[C@@H](O)[C@H](Oc2ccc3c(O)c(NC(=O)c4ccc(O)c(CC=C(C)C)c4)c(=O)oc3c2C)OC1(C)C [NOVOBIOCIN] > 30 µM

Specify AC50 for Cn1cnc2c(F)c(Nc3ccc(Br)cc3F)c(C(=O)NOCCO)cc21 [BINIMETINIB] and stop. > 30 µM

Note AC50 for the compound shown: CCC[C@@]1(CCc2ccccc2)CC(O)=C([C@H](CC)c2cccc(NS(=O)(=O)c3ccc(C(F)(F)F)cn3)c2)C(=O)O1 > 30 µM

Let me know recorded AC50 for C[C@H](CCC(=O)O)[C@H]1CC[C@H]2[C@@H]3[C@H](O)C[C@@H]4C[C@H](O)CC[C@]4(C)[C@H]3CC[C@]12C [CHENODIOL] , thanks. > 30 µM

Could you please provide reported AC50 for NCC1(CC(=O)O)CCCCC1 [GABAPENTIN] ? Thanks! > 30 µM
